Data provenance: patent US9340577

Target: T1, H-2Kd (mouse)
T1 chain 1: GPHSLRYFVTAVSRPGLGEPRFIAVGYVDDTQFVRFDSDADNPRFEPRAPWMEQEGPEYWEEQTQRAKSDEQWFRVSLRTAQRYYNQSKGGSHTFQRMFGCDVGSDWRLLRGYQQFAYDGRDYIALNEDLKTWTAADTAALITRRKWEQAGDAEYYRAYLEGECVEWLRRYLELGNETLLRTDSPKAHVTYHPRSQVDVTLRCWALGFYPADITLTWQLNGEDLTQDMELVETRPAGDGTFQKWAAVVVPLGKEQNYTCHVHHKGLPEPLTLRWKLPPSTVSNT
T1 chain 2: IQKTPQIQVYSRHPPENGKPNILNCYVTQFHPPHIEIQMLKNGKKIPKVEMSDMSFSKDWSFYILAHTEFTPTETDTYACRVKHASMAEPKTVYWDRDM
Assay: competition
Details: modification not given
Reported IC50 values for a set of binders

binder="SGPSNTPPEI [1079.06]" quantity_measured=IC50 observed="> 10 µM"

Query: Can you look up the measured IC50 of ASNENMETM [Flu NP 366] for me?
Response: > 10 µM

Query: Quick one: SIINFEKL [Ova 257]
Response: > 10 µM
